target: human DP2 (Homo sapiens (Human)); test: DP-2 Binding Inhibition Assay (3H-PGD2 binding to membranes of K562 cells expressing DP2); details: read-out: EC50 (nM) 4% HSA; inhibition of 3H-PGD2 binding, 4% HSA
Sequence (Q9Y5Y4 whole entry): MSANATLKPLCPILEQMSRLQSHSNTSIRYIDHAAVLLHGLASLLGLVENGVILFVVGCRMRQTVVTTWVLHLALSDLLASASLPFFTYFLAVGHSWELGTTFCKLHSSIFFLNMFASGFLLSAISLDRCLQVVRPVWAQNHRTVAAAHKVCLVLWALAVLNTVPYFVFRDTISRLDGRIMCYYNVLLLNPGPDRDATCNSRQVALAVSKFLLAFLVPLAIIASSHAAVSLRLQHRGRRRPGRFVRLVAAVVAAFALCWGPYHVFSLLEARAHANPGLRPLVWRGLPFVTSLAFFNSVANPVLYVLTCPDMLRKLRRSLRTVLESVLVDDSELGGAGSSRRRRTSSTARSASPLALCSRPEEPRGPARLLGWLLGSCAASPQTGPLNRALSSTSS
Would you kindly list EC50 for each of these compounds?
Numbers only, in nM.

# compound, readout-number
data = [
    ("O=C(NCCCc1ccccc1)c1ccc(Oc2cc3c(cc2Cl)C(C(=O)O)CCO3)cc1 (centres unmarked) [Example 78]", 681),
    ("O=C(NCCc1ccccc1-c1ccccc1Cl)c1ccc(Oc2cc3c(cc2Cl)C(C(=O)O)CCO3)cc1 (centres unmarked) [Example 96]", 40.2),
    ("COc1ccc(CCNC(=O)c2ccc(Oc3cc4c(cc3Cl)C(C(=O)O)CCO4)cc2)cc1OC (centres unmarked) [Example 141]", 1000),
    ("COc1cc(Br)ccc1CCNC(=O)c1ccc(Oc2cc3c(cc2Cl)C(C(=O)O)CCO3)cc1 (centres unmarked) [Example 35]", 64.3),
    ("O=C(NC1CCC(c2cccc(F)c2)C1)c1ccc(Oc2cc3c(cc2Cl)C(C(=O)O)CCO3)cc1 (centres unmarked) [Example 171]", 333),
]

Quick one: give me EC50 for each item below, same order please.
1. O=C(NCCc1ccccc1-c1ccc(Cl)cc1)c1ccc(Oc2cc3c(cc2Cl)C(C(=O)O)CCO3)cc1 (centres unmarked) [Example 94]
2. O=C(NCCc1ccc(O)cc1)c1ccc(Oc2cc3c(cc2Cl)C(C(=O)O)CCO3)cc1 (centres unmarked) [Example 84]
3. O=C(NCCc1ccc(-c2ccccc2)cc1)c1ccc(Oc2cc3c(cc2Cl)C(C(=O)O)CCO3)cc1 (centres unmarked) [Example 59]

1: 287; 2: 1380; 3: 158
